# condition.details: human gut metagenome, 24 h, 2 µM; further: call rule not given here

- molecule: "CCN(CC)C(=O)/C(C#N)=C/c1cc(O)c(O)c([N+](=O)[O-])c1 [ENTACAPONE]"
  Bacterial Biotransformation: "Compound NOT metabolized"
- molecule: "CS(=O)(=O)O.OC(CCN1CCCCC1)(c1ccccc1)c1ccccc1 [PRIDINOL METHANESULFONATE]"
  Bacterial Biotransformation: "Compound NOT metabolized"
- molecule: "CS(=O)(=O)O.O.O.O.O=C1Cc2cc(CCN3CCN(c4nsc5ccccc45)CC3)c(Cl)cc2N1 [ZIPRASIDONE MESYLATE]"
  Bacterial Biotransformation: "Compound NOT metabolized"
- molecule: "CN(C(=O)CN(CCO)CC(=O)N(C)C(C)(C)Cc1ccccc1)C(C)(C)Cc1ccccc1 [OXETHAZAINE]"
  Bacterial Biotransformation: "Compound metabolized"
- molecule: "CC[C@H](C)C(=O)O[C@H]1C[C@@H](C)C=C2C=C[C@H](C)[C@H](CC[C@@H]3C[C@@H](O)CC(=O)O3)[C@H]21 [LOVASTATIN]"
  Bacterial Biotransformation: "Compound NOT metabolized"
- molecule: "C#C[C@]1(O)CC[C@H]2[C@@H]3CCC4=CC(=O)CC[C@@H]4[C@H]3CC[C@@]21CC [LEVONORGESTREL]"
  Bacterial Biotransformation: "Compound NOT metabolized"
- molecule: "CN1C[C@H](C(=O)N[C@]2(C)O[C@@]3(O)[C@@H]4CCCN4C(=O)[C@H](Cc4ccccc4)N3C2=O)C=C2c3cccc4[nH]cc(c34)C[C@H]21.CN1C[C@H](C(=O)N[C@]2(C)O[C@@]3(O)[C@@H]4CCCN4C(=O)[C@H](Cc4ccccc4)N3C2=O)C=C2c3cccc4[nH]cc(c34)C[C@H]21.O=C(O)C(O)C(O)C(=O)O [ERGOTAMINE TARTRATE]"
  Bacterial Biotransformation: "Compound NOT metabolized"
- molecule: "CC(Oc1c(Cl)cccc1Cl)C1=NCCN1 (stereo unspecified) [LOFEXIDINE]"
  Bacterial Biotransformation: "Compound metabolized"
- molecule: "O=C1NCC2(CCN(CCc3ccccc3)CC2)O1 [FENSPIRIDE]"
  Bacterial Biotransformation: "Compound NOT metabolized"
- molecule: "CC(C)c1c(C(=O)Nc2ccccc2)c(-c2ccccc2)c(-c2ccc(F)cc2)n1CC[C@@H](O)C[C@@H](O)CC(=O)O [ATORVASTATIN]"
  Bacterial Biotransformation: "Compound metabolized"
- molecule: "Br.CN(C)CCCC1(c2ccc(F)cc2)OCc2cc(C#N)ccc21 (stereo unspecified) [CITALOPRAM HYDROBROMIDE]"
  Bacterial Biotransformation: "Compound metabolized"
- molecule: "CCC1(c2ccc(N)cc2)CCC(=O)NC1=O (stereo unspecified) [AMINOGLUTETHIMIDE]"
  Bacterial Biotransformation: "Compound NOT metabolized"
- molecule: "O=C(NCc1ccccc1)OCCO [BURAMATE]"
  Bacterial Biotransformation: "Compound NOT metabolized"
- molecule: "O=C(O)CCc1nc(-c2ccccc2)c(-c2ccccc2)o1 [OXAPROZIN]"
  Bacterial Biotransformation: "Compound metabolized"
- molecule: "CC(C)NCC(O)COc1ccc(CCOCC2CC2)cc1 (stereo unspecified) [BETAXOLOL]"
  Bacterial Biotransformation: "Compound metabolized"
- molecule: "CC(C)(C#N)c1cc(Cn2cncn2)cc(C(C)(C)C#N)c1 [ANASTROZOLE]"
  Bacterial Biotransformation: "Compound NOT metabolized"
- molecule: "CCOC(=O)[C@H](CCc1ccccc1)N[C@@H](C)C(=O)N1[C@H](C(=O)O)C[C@@H]2CCC[C@@H]21"
  Bacterial Biotransformation: "Compound metabolized"
- molecule: "O=c1[nH]c2ccccc2n1CCCN1CCC(n2c(=O)[nH]c3cc(Cl)ccc32)CC1 [DOMPERIDONE]"
  Bacterial Biotransformation: "Compound NOT metabolized"
- molecule: "CC(CN1c2ccccc2Sc2ccccc21)N(C)C (stereo unspecified) [PROMETHAZINE]"
  Bacterial Biotransformation: "Compound NOT metabolized"
- molecule: "CC(C)NCC(O)COc1ccc(COCCOC(C)C)cc1.CC(C)NCC(O)COc1ccc(COCCOC(C)C)cc1.O=C(O)/C=C/C(=O)O (stereo unspecified) [BISOPROLOL FUMARATE]"
  Bacterial Biotransformation: "Compound NOT metabolized"
- molecule: "CC(C)(C)NC[C@H](O)COc1ccccc1C1CCCC1.CC(C)(C)NC[C@H](O)COc1ccccc1C1CCCC1.O=S(=O)(O)O [PENBUTOLOL SULFATE]"
  Bacterial Biotransformation: "Compound metabolized"
- molecule: "CNC(=C[N+](=O)[O-])NCCSCc1ccc(CN(C)C)o1 [RANITIDINE]"
  Bacterial Biotransformation: "Compound NOT metabolized"
- molecule: "OC(CCN1CCCCC1)(c1ccccc1)C1CC2C=CC1C2 (stereo unspecified) [BIPERIDEN]"
  Bacterial Biotransformation: "Compound metabolized"
- molecule: "COC(=O)[C@H]1[C@H]2C[C@@H]3c4[nH]c5cc(OC)ccc5c4CCN3C[C@H]2C[C@@H](OC(=O)c2cc(OC)c(OC)c(OC)c2)[C@@H]1OC [RESERPINE]"
  Bacterial Biotransformation: "Compound NOT metabolized"
- molecule: "Nc1ccc(/N=N/c2ccccc2)c(N)n1 [PHENAZOPYRIDINE]"
  Bacterial Biotransformation: "Compound metabolized"
- molecule: "NS(=O)(=O)c1cc2c(cc1Cl)N=C(CSCc1ccccc1)NS2(=O)=O [BENZTHIAZIDE]"
  Bacterial Biotransformation: "Compound NOT metabolized"
- molecule: "COc1c(C)c2c(c(O)c1C/C=C(\\C)CCC(=O)OCCN1CCOCC1)C(=O)OC2 [MYCOPHENOLATE MOFETIL]"
  Bacterial Biotransformation: "Compound metabolized"
- molecule: "Nc1nc2ccc(OC(F)(F)F)cc2s1 [RILUZOLE]"
  Bacterial Biotransformation: "Compound metabolized"
- molecule: "CCCCC1=NC2(CCCC2)C(=O)N1Cc1ccc(-c2ccccc2-c2nnn[nH]2)cc1 [IRBESARTAN]"
  Bacterial Biotransformation: "Compound metabolized"
- molecule: "CO[C@]12C[C@@H](COC(=O)c3cncc(Br)c3)CN(C)[C@@H]1Cc1cn(C)c3cccc2c13 [NICERGOLINE]"
  Bacterial Biotransformation: "Compound NOT metabolized"
- molecule: "Cc1ccc(-c2cc(C(F)(F)F)nn2-c2ccc(S(N)(=O)=O)cc2)cc1 [CELECOXIB]"
  Bacterial Biotransformation: "Compound NOT metabolized"
